Provide the recorded γ-thrombin % Max PAC-1 binding (316 nM) for the entries that follow.
- subject_of_test: PAR4 (Homo sapiens, UniProt Q96RI0)
- Construct: 60 μL of washed platelets (Tyrodes buffer containing 0.1% BSA); endogenous in cells; host or cells: washed platelets
- Sequence (Q96RI0 18-385): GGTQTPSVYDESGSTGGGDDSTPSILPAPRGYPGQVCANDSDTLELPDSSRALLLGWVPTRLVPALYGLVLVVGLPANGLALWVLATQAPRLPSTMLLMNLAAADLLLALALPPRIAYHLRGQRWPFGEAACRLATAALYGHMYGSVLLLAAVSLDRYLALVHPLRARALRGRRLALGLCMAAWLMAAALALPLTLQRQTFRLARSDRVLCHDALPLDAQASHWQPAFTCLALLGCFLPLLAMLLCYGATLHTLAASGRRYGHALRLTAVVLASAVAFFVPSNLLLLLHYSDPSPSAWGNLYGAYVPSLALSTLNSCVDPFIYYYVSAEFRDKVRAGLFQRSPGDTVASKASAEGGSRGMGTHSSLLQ
- test_summary: PAC-1 binding assay, platelets stimulated with γ-thrombin
- Format: cell-based
- condition_description: stimulation with 316 nM γ-thrombin; compound concentration not given
Respond with the bare value in %.

## Task γ-thrombin % Max PAC-1 binding (316 nM) for COc1nn2cc(-c3cnn(-c4ccccc4)c3C)nc2s1 ?
## Result 95

## Task γ-thrombin % Max PAC-1 binding (316 nM) for COc1nn2cc(-c3c(-c4ccccc4)noc3C)nc2s1 ?
## Result 93

## Task γ-thrombin % Max PAC-1 binding (316 nM) for COc1nn2cc(-c3sc(-c4ccccc4)nc3C)nc2s1 ?
## Result 92

## Task γ-thrombin % Max PAC-1 binding (316 nM) for COc1nn2cc(-c3csc4ccccc34)nc2s1 ?
## Result 99

## Task γ-thrombin % Max PAC-1 binding (316 nM) for COc1nn2cc(-c3nccs3)nc2s1 ?
## Result 98

## Task γ-thrombin % Max PAC-1 binding (316 nM) for COc1nn2cc(-c3ccc(-c4ccccc4)s3)nc2s1 ?
## Result 78

## Task γ-thrombin % Max PAC-1 binding (316 nM) for COC(=O)c1[nH]c2ccc(OC(F)(F)F)cc2c1-c1cn2nc(OC)sc2n1 ?
## Result 100

## Task γ-thrombin % Max PAC-1 binding (316 nM) for COc1nn2cc(-c3cc(-c4ccc(Cl)cc4)no3)nc2s1 ?
## Result 94

Provenance of the data: patent US9963466B2
